system: Staphylococcus aureus; assay: Antibacterial activity against Staphylococcus aureus ATCC 25293 after 24 hr by two-fold serial dilution method; assay type: functional; settings: ATCC 25293, 24 h
Provide the recorded MIC for the entries that follow.
Answers are plain numbers, in µg/mL.

> print(dat)
                                   molecule  unit.abbreviation  measured.value
1  Cc1ccc(C2SCC(=O)N2NC(=O)C(C)Oc2cc(Cl)c(Cl)cc2Cl)o1 (stereo unspecified)              µg/mL            12.5
2  CC(Oc1cc(Cl)c(Cl)cc1Cl)C(=O)NN1C(=O)CSC1c1cccnc1 (stereo unspecified)              µg/mL            6.25
3  Cc1ccc(C2(C)SCC(=O)N2NC(=O)C(C)Oc2cc(Cl)c(Cl)cc2Cl)cc1 (stereo unspecified)              µg/mL            12.5
4  CC(Oc1cc(Cl)c(Cl)cc1Cl)C(=O)NN1C(=O)CSC12C(=O)Nc1ccccc12 (stereo unspecified)              µg/mL              25
5  C#CCN1C(=O)C2(SCC(=O)N2NC(=O)C(C)Oc2cc(Cl)c(Cl)cc2Cl)c2ccccc21 (stereo unspecified)              µg/mL              50

Go through the list and state MIC for each entry.
1. CC(Oc1cc(Cl)c(Cl)cc1Cl)C(=O)NN1C(=O)CSC1c1ccncc1 (stereo unspecified)
2. O=C(N[C@H](CO)[C@H](O)c1ccc([N+](=O)[O-])cc1)C(Cl)Cl
3. Cc1ccc(C2SCC(=O)N2NC(=O)C(C)Oc2cc(Cl)c(Cl)cc2Cl)s1 (stereo unspecified)
4. CC(Oc1cc(Cl)c(Cl)cc1Cl)C(=O)NN1C(=O)CSC1c1cccc([N+](=O)[O-])c1 (stereo unspecified)

Response line:
6.25
6.25
12.5
12.5

Go through the list and state MIC for each entry.
1. CC(Oc1cc(Cl)c(Cl)cc1Cl)C(=O)NN1C(=O)CSC1(C)c1ccc(Cl)cc1 (stereo unspecified)
2. CC(Oc1cc(Cl)c(Cl)cc1Cl)C(=O)NN1C(=O)CSC1c1cccs1 (stereo unspecified)

Response line:
[12.5, 6.25]
